TARGET UNDER TEST: ABCG2 (Homo sapiens, UniProt Q9UNQ0)
Sequence (Q9UNQ0 whole entry): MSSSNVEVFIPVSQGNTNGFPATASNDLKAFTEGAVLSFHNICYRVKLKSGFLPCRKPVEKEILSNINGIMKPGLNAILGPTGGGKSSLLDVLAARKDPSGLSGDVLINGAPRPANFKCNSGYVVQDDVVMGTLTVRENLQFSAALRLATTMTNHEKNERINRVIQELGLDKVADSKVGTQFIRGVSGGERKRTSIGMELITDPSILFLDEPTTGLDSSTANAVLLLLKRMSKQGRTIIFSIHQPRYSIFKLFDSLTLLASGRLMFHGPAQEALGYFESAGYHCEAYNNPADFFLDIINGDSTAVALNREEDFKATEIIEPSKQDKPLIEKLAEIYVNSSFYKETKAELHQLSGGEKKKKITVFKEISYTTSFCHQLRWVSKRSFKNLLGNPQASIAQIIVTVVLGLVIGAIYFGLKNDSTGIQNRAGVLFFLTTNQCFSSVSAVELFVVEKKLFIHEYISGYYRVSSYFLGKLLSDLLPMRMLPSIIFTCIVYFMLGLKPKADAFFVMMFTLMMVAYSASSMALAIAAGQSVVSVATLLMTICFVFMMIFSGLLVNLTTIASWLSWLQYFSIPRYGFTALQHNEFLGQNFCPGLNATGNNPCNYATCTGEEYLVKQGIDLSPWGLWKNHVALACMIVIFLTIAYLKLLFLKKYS
EXPERIMENTAL PROTOCOL: biochemical

>  <MOLECULE>
COc1cc(O)c2c(=O)cc(-c3ccc(O)c(O)c3)oc2c1 [HGK, Hydroxygenkwanin]

>  <EC50>
~19 nM

$$$$
